Sourced from paper PMC11785374

# Tested on: AKT1/PKBα (Homo sapiens)
# Sequence (P31749 whole entry): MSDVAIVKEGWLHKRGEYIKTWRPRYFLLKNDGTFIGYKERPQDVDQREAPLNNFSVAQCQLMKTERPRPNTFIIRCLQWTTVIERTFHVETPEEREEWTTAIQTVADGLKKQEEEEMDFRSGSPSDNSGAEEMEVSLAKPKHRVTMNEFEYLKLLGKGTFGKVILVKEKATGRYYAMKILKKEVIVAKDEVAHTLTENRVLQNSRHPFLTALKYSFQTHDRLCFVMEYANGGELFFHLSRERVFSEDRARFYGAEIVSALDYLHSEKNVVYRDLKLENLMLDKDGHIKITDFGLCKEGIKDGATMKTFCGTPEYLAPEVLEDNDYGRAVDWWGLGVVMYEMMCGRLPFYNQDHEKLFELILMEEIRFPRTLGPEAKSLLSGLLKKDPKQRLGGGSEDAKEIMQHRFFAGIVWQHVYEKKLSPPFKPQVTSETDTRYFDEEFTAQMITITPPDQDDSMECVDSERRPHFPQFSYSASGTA
# Measurement notes: radiometric in vitro kinase assay (Eurofins KinaseProfiler)
pIC50: −log10 of the molar value.
Property label: pIC50

>>> print(df.to_string())
                                   compound  obs_value
0  CC(C)=CCc1c(O)ccc(C(=O)/C=C/c2ccc(O)cc2)c1O [IBC, Isobavachalcone]       4.25

* * *

# Tested on: UniProt Q96GD4
# Sequence (Q96GD4 whole entry): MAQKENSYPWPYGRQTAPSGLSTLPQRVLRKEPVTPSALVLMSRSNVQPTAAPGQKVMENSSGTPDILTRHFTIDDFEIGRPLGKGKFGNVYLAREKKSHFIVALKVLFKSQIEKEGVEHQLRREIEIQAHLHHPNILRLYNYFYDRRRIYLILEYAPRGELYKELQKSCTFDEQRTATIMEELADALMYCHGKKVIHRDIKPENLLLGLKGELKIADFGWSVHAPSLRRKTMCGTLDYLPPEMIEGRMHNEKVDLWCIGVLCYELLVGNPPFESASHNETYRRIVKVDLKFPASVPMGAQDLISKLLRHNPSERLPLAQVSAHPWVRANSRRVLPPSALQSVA
Property label: IC50 (µM)

                                   compound       tested_on  obs_value
0  CC(C)=CCc1c(O)ccc(C(=O)/C=C/c2ccc(O)cc2)c1O [IBC, Isobavachalcone]  UniProt Q96GD4       11.2

* * *

# Tested on: CHK2 (Homo sapiens)
# Sequence (O96017 whole entry): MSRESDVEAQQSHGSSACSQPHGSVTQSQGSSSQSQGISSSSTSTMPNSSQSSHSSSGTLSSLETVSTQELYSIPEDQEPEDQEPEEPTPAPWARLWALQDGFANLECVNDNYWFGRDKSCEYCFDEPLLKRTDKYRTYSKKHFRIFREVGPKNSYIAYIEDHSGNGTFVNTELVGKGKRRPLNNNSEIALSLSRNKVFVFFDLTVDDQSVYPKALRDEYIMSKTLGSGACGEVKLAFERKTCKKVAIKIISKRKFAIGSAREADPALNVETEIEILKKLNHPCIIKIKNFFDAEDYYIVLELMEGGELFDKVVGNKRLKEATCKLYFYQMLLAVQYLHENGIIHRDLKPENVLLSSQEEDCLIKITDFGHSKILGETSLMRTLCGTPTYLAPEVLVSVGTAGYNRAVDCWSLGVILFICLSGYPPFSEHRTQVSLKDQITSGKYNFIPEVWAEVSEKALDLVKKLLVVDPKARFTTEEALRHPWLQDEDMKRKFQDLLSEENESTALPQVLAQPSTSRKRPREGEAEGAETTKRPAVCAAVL
# Measurement notes: radiometric in vitro kinase assay (Eurofins KinaseProfiler); also CETSA in MCF-7 cells
Property label: IC50

In [3]: df
Out[3]:
                         structure_notation  obs_value
0  CC(C)=CCc1c(O)ccc(C(=O)/C=C/c2ccc(O)cc2)c1O     3.5 µM
